- System: Cathepsin D (Cat D) (Homo sapiens (Human))
- Sequence (P07339 65-412, species assumed): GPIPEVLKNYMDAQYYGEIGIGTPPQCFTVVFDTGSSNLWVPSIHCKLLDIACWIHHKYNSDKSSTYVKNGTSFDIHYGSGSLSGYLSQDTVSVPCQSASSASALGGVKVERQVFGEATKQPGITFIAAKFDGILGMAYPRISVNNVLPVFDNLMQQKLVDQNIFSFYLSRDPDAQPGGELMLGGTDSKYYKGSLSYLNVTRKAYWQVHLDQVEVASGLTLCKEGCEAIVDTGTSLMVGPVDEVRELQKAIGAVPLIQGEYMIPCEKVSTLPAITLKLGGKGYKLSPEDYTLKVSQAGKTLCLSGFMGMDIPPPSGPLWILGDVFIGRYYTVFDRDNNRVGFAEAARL
- Assay Notes: In vitro enzymatic Cathepsin D (Cat D) FRET assay
- Assay type: biochemical
- Details: average IC50, cathepsin D enzyme assay; read-out: CatD IC50
Experimental Readout: log10 IC50 (log10 of the value in µM)
Note: values are log10 of IC50 expressed in µM.

Answered examples (3):
C[C@@]1(c2cc(Nc3nccc4cc(Cl)cnc34)cc(F)c2F)C[C@@H](C(F)(F)F)OC(N)=N1 : 2.02
NC1=N[C@](CF)(c2cc(-c3cncc(-c4nnco4)c3)ccc2F)C[C@@H](C(F)(F)F)O1 : 2.66
N#Cc1cc(Nc2ccc(F)c([C@]3(CF)C[C@@H](C(F)(F)F)OC(N)=N3)c2)ccn1 : 3.25

Your task in this section: give log10 IC50 for each listed record.
1. C[C@@]1(c2cc(NC(=O)N3CCc4ccccc4C3)ccc2F)C[C@@H](C(F)(F)F)OC(N)=N1
2. C[C@@]1(c2cc(NC(=O)c3ncc(Cl)cc3Cl)cc(F)c2F)C[C@@H](C(F)(F)F)OC(N)=N1
3. COc1cnc(C(=O)Nc2ccc(F)c([C@]3(C)C[C@@H](C(F)(F)F)OC(N)=N3)n2)c(Cl)c1
4. NC1=N[C@](CF)(c2cc(NC(=O)c3ccc(Cl)cn3)cc(F)c2F)C[C@@H](C(F)(F)F)O1
5. NC1=N[C@](CF)(c2cc(Nc3cc(-c4ccccc4)ccn3)ccc2F)C[C@@H](C(F)(F)F)O1
6. C[C@@]1(c2cc(NC(=O)c3ncc(C#N)cc3Cl)cc(F)c2F)C[C@@H](C(F)(F)F)OC(N)=N1
7. Cc1cc(C(F)F)cnc1C(=O)Nc1cc(F)c(F)c([C@]2(C)C[C@@H](C(F)(F)F)OC(N)=N2)c1
8. C[C@@]1(c2cc(NC(=O)c3nn(C(F)F)cc3Cl)cnc2F)C[C@@H](C(F)(F)F)OC(N)=N1

1. 3.56
2. 2.60
3. 2.82
4. 3.44
5. 2.50
6. 2.05
7. 3.31
8. 2.93

----------
- System: Beta Secretase enzyme (BACE) (Homo sapiens (Human), UniProt P56817)
- Sequence (P56817 46-501): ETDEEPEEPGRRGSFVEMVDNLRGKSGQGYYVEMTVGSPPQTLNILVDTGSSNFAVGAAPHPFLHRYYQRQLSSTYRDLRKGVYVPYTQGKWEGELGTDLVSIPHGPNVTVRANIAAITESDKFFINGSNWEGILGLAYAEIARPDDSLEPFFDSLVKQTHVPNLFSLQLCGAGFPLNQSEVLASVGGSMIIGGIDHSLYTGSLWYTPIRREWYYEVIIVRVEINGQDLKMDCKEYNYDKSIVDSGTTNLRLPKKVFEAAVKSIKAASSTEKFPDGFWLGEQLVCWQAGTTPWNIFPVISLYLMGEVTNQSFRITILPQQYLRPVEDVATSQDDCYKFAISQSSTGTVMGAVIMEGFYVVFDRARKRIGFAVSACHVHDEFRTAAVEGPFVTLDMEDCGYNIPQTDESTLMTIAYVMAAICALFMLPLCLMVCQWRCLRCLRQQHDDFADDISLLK
- Assay Notes: In vitro enzymatic BACE FRET assay
- Type: biochemical
- Details: average; read-out: BACE 1 FRET assay IC50
- Procedure: In Vitro Enzymatic BACE FRET (Fluorescence Resonance Energy Transfer) Assay (Enzyme Assay Data in the Example Table I) The assay buffer used in this screen is 0.05 M acetate, pH 4.2, 10% DMSO final, 100 uM genapol (which is a nonionic detergent, below its Critical Micelle Concentration). […] The FRET assay is terminated with by addition of Tris buffer, which raises the pH to neutrality, and the fluorescence is determined. […]
Experimental Readout: pIC50
Give bare numbers, as −log10 of the molar value.

Solved cases (5 shown):
COc1cc(Cl)cnc1C(=O)Nc1cc(F)c(F)c([C@]2(C)C[C@@H](C(F)(F)F)OC(N)=N2)c1 [Example 195] : 7.15
Cc1cc(C#N)cnc1C(=O)Nc1cc(F)c(F)c([C@]2(CF)C[C@@H](C(F)(F)F)OC(N)=N2)c1 [Example 232] : 7.80
Cc1cc(OCC(F)(F)F)cnc1C(=O)Nc1cc(C)c(F)c([C@]2(CF)C[C@@H](C(F)(F)F)OC(N)=N2)c1 [Example 220] : 7.18
NC1=N[C@](CF)(c2cc(C#Cc3ccc(OC4CCC4)cn3)ccc2F)C[C@@H](C(F)(F)F)O1 [Example 128] : 4.69
NC1=N[C@](CF)(c2cc(C#Cc3cccc4[nH]ccc34)ccc2F)C[C@@H](C(F)(F)F)O1 [Example 130] : 5.25

Now look at this entry.
Can you share its pIC50? I mean this compound: Cc1cc(Nc2ncnc3cc(Cl)cnc23)cc([C@]2(CF)C[C@@H](C(F)(F)F)OC(N)=N2)c1F [Example 230] 7.31
